Tested on: EKVX NSCLC
measurement-notes: NCI tumour cell line growth inhibition, 48 h

{"columns": ["molecule", "TGI"],
 "data": [
  ["CON(C)C(C#N)=C(C#N)C#N", "> 10 µM"],
  ["Cc1cccc2c1Oc1cc(Cl)ccc1C2NC(=O)CCN1CCN(CCO)CC1 (stereo not given)", "70.5 µM"],
  ["C1CCN(CCC2CCCCN2)CC1 (stereo not given)", "> 100 µM"],
  ["COc1ccc(N2C(=O)C3ON(C(C(N)=O)c4ccccc4)C(c4ccc(-c5ccccc5)cc4)C3C2=O)cc1 (stereo not given)", "> 50 µM"],
  ["O=C(/C=C/c1ccc(Cl)cc1)Oc1ccc(/C=C2\\CCCCC2=O)cc1", "> 100 µM"]
]}

###

Test system: EKVX NSCLC
measurement-notes: NCI tumour cell line growth inhibition, 48 h
# TGI annotations
test-readout: TGI

{"columns": ["compound", "test-readout", "observed-measurement"],
 "data": [
  ["C[C@]12CCC[C@H](Cl)C1(O)C[C@H](C(=O)O)CC2 (stereo partly specified)", "TGI", "> 100 µM"],
  ["CC(C)(C)c1ccc(-c2nc3ccc([N+](=O)[O-])cc3c(=O)o2)cc1", "TGI", "> 100 µM"],
  ["O=P(Oc1ccccc1)(Oc1ccccc1)Oc1c[nH]c2ccccc12", "TGI", "0.907 µM"],
  ["COc1ccc(/C=C2\\CCCCC2=O)cc1", "TGI", "> 100 µM"],
  ["CC1C[C@H](OC(N)=O)C(C)CC1=O (stereo partly specified)", "TGI", "> 100 µM"],
  ["CC1(C)C(=O)C(C)(C)C12SSC1(S2)C(C)(C)C(=O)C1(C)C", "TGI", "> 100 µM"],
  ["CC(C)NC(=O)CN1CCN(C2=CC(=O)c3c(O)ccc(O)c3C2=O)CC1", "TGI", "33.6 µM"],
  ["CCNC1(c2cccc(C)c2)OC(C)(C)c2cccc3cccc1c23 (stereo unspecified)", "TGI", "38 µM"],
  ["CCCCCNc1nonc1N", "TGI", "> 100 µM"],
  ["Cc1ccc(NC(=O)c2cccc([N+](=O)[O-])c2O)c([N+](=O)[O-])c1", "TGI", "48.4 µM"],
  ["CC(C)(C)[Si](C)(C)OCC1OC(n2cnc3c(NC(=O)c4ccccc4)ncnc32)CC1O (stereo unspecified)", "TGI", "> 100 µM"]
]}

###

Tested on: HL-60(TB) leukemia
measurement-notes: NCI tumour cell line growth inhibition, 48 h

{"columns": ["compound", "readout-unit", "censor-symbol", "TGI"],
 "data": [
  ["Cc1cc2cc3cc(C)c(N(C)C)cc3nc2cc1N(C)C", "µM", ">", 100],
  ["CC(=O)Nc1ccc(Sc2ccc([N+](=O)[O-])o2)cc1", "µM", "=", 3.79],
  ["C(=C\\c1n(Cc2ccc3ccccc3c2)c(-c2ccccc2)c(-c2ccccc2)[n+]1Cc1ccc2ccccc2c1)/c1ccccc1", "µM", "=", 0.635],
  ["COC1=CC(O)(CC(N)=O)c2ccccc2C1=O (stereo not given)", "µM", ">", 100],
  ["CN1CN(c2ccccc2)C2(CCN(CCCSc3ccccc3NC(=O)/C=C/c3ccccc3)CC2)C1=O", "µM", "=", 23.8]
]}
